- Assay: Drug level in wild type mouse feces treated with 50 mg/kg, po atazanavir by LC-MS/MS analysis
- Assay type: ADME, organism-based
- Parameters: dose 50 mg/kg, dosed compound name Azazanavir, route oral
- Measurement Parameters: in vivo
Assay Metric: Compound recovery

[
  {
    "Molecule": "COC(=O)N[C@H](C(=O)N[C@@H](Cc1ccccc1)[C@@H](O)C=O)C(C)(C)C",
    "Assay Metric": "Compound recovery",
    "Recorded Value": "metabolite_detected"
  },
  {
    "Molecule": "COC(=O)N[C@H](C(=O)NN(Cc1ccc(-c2ccccn2)cc1)C[C@H](O)[C@H](Cc1ccccc1)NC(=O)[C@@H](N)C(C)(C)C)C(C)(C)C",
    "Assay Metric": "Compound recovery",
    "Recorded Value": "metabolite_detected"
  },
  {
    "Molecule": "COC(=O)N[C@H](C(=O)NNCc1ccc(-c2ccccn2)cc1)C(C)(C)C",
    "Assay Metric": "Compound recovery",
    "Recorded Value": "metabolite_detected"
  }
]

###

- Assay: Drug level in wild type mouse urine treated with 50 mg/kg, po atazanavir by LC-MS/MS analysis
- Type: ADME, organism-based
- Set-up: dose 50 mg/kg, dosed compound name Azazanavir, route oral
- Measurement Parameters: in vivo

[
  {
    "Molecule": "COC(=O)N[C@H](C(=O)N[C@@H](Cc1ccccc1)[C@@H](O)CN(Cc1ccc(-c2ccccn2)cc1)NC(=O)[C@@H](NC(=O)OC)C(C)(C)CO)C(C)(C)CO",
    "Compound recovery": "metabolite_detected"
  },
  {
    "Molecule": "COC(=O)N[C@H](C(=O)N[C@@H](Cc1ccccc1)[C@@H](O)CNN)C(C)(C)C",
    "Compound recovery": "metabolite_detected"
  },
  {
    "Molecule": "COC(=O)N[C@H](C(=O)NN(Cc1ccc(-c2ccccn2)cc1)C[C@H](O)[C@H](Cc1ccccc1)NC(=O)[C@@H](NC(=O)OC)C(C)(C)CO)C(C)(C)C",
    "Compound recovery": "metabolite_detected"
  }
]

###

- Tested on: Liver microsome
- Assay: Drug metabolism in human liver microsomes treated with 50 uM atazanavir by LC-MS/MS analysis
- Type: ADME
Assay Metric: Compound recovery

[
  {
    "Molecule": "COC(=O)N[C@H](C(=O)NN(Cc1ccc(-c2ccccn2)cc1)C[C@H](O)[C@H](Cc1ccccc1)NC(=O)[C@@H](NC(=O)OC)C(C)(CO)CO)C(C)(C)C",
    "Assay Metric": "Compound recovery",
    "Recorded Value": "metabolite_detected"
  },
  {
    "Molecule": "COC(=O)N[C@H](C(=O)N[C@@H](Cc1ccccc1)[C@@H](O)CNN)C(C)(C)C",
    "Assay Metric": "Compound recovery",
    "Recorded Value": "metabolite_detected"
  },
  {
    "Molecule": "COC(=O)N[C@H](C(=O)NNC[C@H](O)[C@H](Cc1ccccc1)NC(=O)[C@@H](NC(=O)OC)C(C)(C)C)C(C)(C)C",
    "Assay Metric": "Compound recovery",
    "Recorded Value": "metabolite_detected"
  },
  {
    "Molecule": "COC(=O)N[C@H](C(=O)N[C@@H](Cc1ccccc1)[C@@H](O)CN(Cc1ccc(-c2ccccn2)cc1)NC(=O)[C@@H](N)C(C)(C)C)C(C)(C)C",
    "Assay Metric": "Compound recovery",
    "Recorded Value": "metabolite_detected"
  },
  {
    "Molecule": "COC(=O)N[C@H](C(=O)NNCc1ccc(-c2ccccn2)cc1)C(C)(C)C",
    "Assay Metric": "Compound recovery",
    "Recorded Value": "metabolite_detected"
  },
  {
    "Molecule": "COC(=O)N[C@H](C(=O)NN(Cc1ccc(-c2ccccn2)cc1)C[C@H](O)[C@H](Cc1ccccc1)NC(=O)[C@@H](NC(=O)OC)C(C)(C)CO)C(C)(C)C",
    "Assay Metric": "Compound recovery",
    "Recorded Value": "metabolite_detected"
  },
  {
    "Molecule": "COC(=O)N[C@H](C(=O)NN(Cc1ccc(-c2ccccn2)cc1)C[C@H](O)[C@H](Cc1ccccc1)NC(=O)[C@@H](N)C(C)(C)C)C(C)(C)C",
    "Assay Metric": "Compound recovery",
    "Recorded Value": "metabolite_detected"
  }
]

###

- Assay: Drug level in wild type mouse urine treated with 50 mg/kg, po atazanavir by LC-MS/MS analysis
- Assay type: ADME, organism-based
- Parameters: dose 50 mg/kg, dosed compound name Azazanavir, route oral
- Measurement Parameters: in vivo

[
  {
    "Molecule": "COC(=O)N[C@H](C(=O)NNCc1ccc(-c2ccccn2)cc1)C(C)(C)C",
    "Compound recovery": "metabolite_detected"
  },
  {
    "Molecule": "COC(=O)N[C@H](C(=O)N[C@@H](Cc1ccccc1)[C@@H](O)CN(Cc1ccc(-c2ccccn2)cc1)NC(=O)[C@@H](N)C(C)(C)C)C(C)(C)C",
    "Compound recovery": "metabolite_detected"
  },
  {
    "Molecule": "COC(=O)N[C@H](C(=O)NN(Cc1ccc(-c2ccccn2)cc1)C[C@H](O)[C@H](Cc1ccccc1)NC(=O)[C@@H](N)C(C)(C)C)C(C)(C)C",
    "Compound recovery": "metabolite_detected"
  },
  {
    "Molecule": "COC(=O)N[C@H](C(=O)NNC[C@H](O)[C@H](Cc1ccccc1)NC(=O)[C@@H](NC(=O)OC)C(C)(C)C)C(C)(C)C",
    "Compound recovery": "metabolite_detected"
  },
  {
    "Molecule": "COC(=O)N[C@H](C(=O)NN(Cc1ccc(-c2ccccn2)cc1)C[C@H](O)[C@H](Cc1ccccc1)NC(=O)[C@@H](NC(=O)OC)C(C)(CO)CO)C(C)(C)C",
    "Compound recovery": "metabolite_detected"
  }
]
